# study-system: T1, recombinant antigen of the extracellular region of CD47 (Sino Biological, Cat: 12283-H08H) (human, UniProt Q08722 19-139)
# T1 construct: extracellular domain; also called recombinant CD47 extracellular region; CD47 recombinant protein
# T1 sequence (Q08722 19-139 limits assumed): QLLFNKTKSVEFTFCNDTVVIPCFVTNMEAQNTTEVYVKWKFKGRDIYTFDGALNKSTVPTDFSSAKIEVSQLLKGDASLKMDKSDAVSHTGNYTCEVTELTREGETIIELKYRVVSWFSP
# method: Fortebio BLI, recombinant CD47
attribute-measured: kon (M⁻¹ s⁻¹)
API: value field is a number in M⁻¹ s⁻¹; no unit string.

kon measured on hz140-Hm13/hz182-Lm11 (antibody, V domains shown) VH: EVQLVQSGAEVKKPGASVKVSCKASGYKFTNYVMSWVRQAPGQRLEWMGYINPYNDAIKYNEKFTGRVTITRDTSASTAYMELSSLRSEDTAVYYCAREGDFYANYGRLGFAYWGQGTLVTVSS VL: DIQMTQSPSSLSASVGDRVTITCRASQDISNYLNWYQQKPGKAPKLLLYYTSRLHSGVPSRFSGSGSGTDYTLTISSLQPEDIATYFCQQGDTFPYTFGGGTKVEIKR = 103000

The binder identified as hz140-Hm13/hz182-Lm1 (antibody, V domains shown, also called hz182-Lml) VH: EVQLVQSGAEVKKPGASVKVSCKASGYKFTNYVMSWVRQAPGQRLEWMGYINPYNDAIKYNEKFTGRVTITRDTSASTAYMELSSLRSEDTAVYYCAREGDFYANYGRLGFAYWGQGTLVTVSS VL: DIQMTQSPSSLSASVGDRVTITCRASQDISNYLNWYQQKPGKAPKLLIYYTSRLHSGVPSRFSGSGSGTDYTLTISSLQPEDFATYFCQQGAGRPYTFGGGTKVEIKR registered its kon at 134000
